TARGET OF ASSAY: SYK (Homo sapiens, UniProt P43405)
Construct: purchased Eurofins DiscoverX KINOMEscan (scanTK)
ASSAY SUMMARY: KINOMEscan ScanTK
Assay type: binding
EXPERIMENTAL SETUP: @1000nM
Listed here: items and their measured difference in %Control versus compound Ib at 1 µM.
VALUE TYPE: difference in %Control versus compound Ib at 1 µM (%)

[[record]]
compound = "CNC(=O)c1cnc(S(C)(=O)=O)nc1N1CCCC(n2nc(-c3ccc(Oc4ccccc4)cc3)c3c(N)ncnc32)C1 (stereo not shown)"
target_of_assay = "SYK (Homo sapiens, UniProt P43405)"
numeric_readout = -2

[[record]]
compound = "CCOC(=O)c1cnc(S(C)(=O)=O)nc1N1CCC[C@@H](n2nc(-c3ccc(Oc4ccccc4)cc3)c3c(N)ncnc32)C1"
target_of_assay = "SYK (Homo sapiens, UniProt P43405)"
numeric_readout = 9

[[record]]
compound = "Cc1cnc(S(C)(=O)=O)nc1N1CCCC(n2nc(-c3ccc(Oc4ccccc4)cc3)c3c(N)ncnc32)C1 (stereo not shown)"
target_of_assay = "SYK (Homo sapiens, UniProt P43405)"
numeric_readout = -7

[[record]]
compound = "COC(=O)c1cnc(S(C)(=O)=O)nc1N1CCCC(n2nc(-c3ccc(Oc4ccccc4)cc3)c3c(N)ncnc32)C1 (stereo not shown)"
target_of_assay = "SYK (Homo sapiens, UniProt P43405)"
numeric_readout = -13

